Assay: activity coefficient (dimensionless); of the first substance listed, at infinite dilution; xn = mol fraction of the nth substance listed
Settings: 388.15 K; 101.33 kPa; Liquid; Chromatography; x1 = 0
measurement.label: activity coefficient

• CCC[N+](=O)[O-] [1-nitropropane] + CCCC[P+](CCCC)(CCCC)CCCC.O=S(=O)([N-]S(=O)(=O)C(F)(F)F)C(F)(F)F = 0.739
• CCOCC [diethyl ether] + CCCC[P+](CCCC)(CCCC)CCCC.O=S(=O)([N-]S(=O)(=O)C(F)(F)F)C(F)(F)F = 1.8
• COC(C)=O [methyl ethanoate] + CCCC[P+](CCCC)(CCCC)CCCC.O=S(=O)([N-]S(=O)(=O)C(F)(F)F)C(F)(F)F = 0.847
• CC(C)=O [acetone] + CCCC[P+](CCCC)(CCCC)CCCC.O=S(=O)([N-]S(=O)(=O)C(F)(F)F)C(F)(F)F = 0.567
• Cc1ccc(C)cc1 [1,4-dimethylbenzene] + CCCC[P+](CCCC)(CCCC)CCCC.O=S(=O)([N-]S(=O)(=O)C(F)(F)F)C(F)(F)F = 1.69
• C1COCCO1 [1,4-dioxane] + CCCC[P+](CCCC)(CCCC)CCCC.O=S(=O)([N-]S(=O)(=O)C(F)(F)F)C(F)(F)F = 0.884
• CC1CCCCC1 [methylcyclohexane] + CCCC[P+](CCCC)(CCCC)CCCC.O=S(=O)([N-]S(=O)(=O)C(F)(F)F)C(F)(F)F = 3.48
• C=CCCCCCCCC [1-decene] + CCCC[P+](CCCC)(CCCC)CCCC.O=S(=O)([N-]S(=O)(=O)C(F)(F)F)C(F)(F)F = 7.36
• CCCCO [butan-1-ol] + CCCC[P+](CCCC)(CCCC)CCCC.O=S(=O)([N-]S(=O)(=O)C(F)(F)F)C(F)(F)F = 1.51
• C=CCCCCC [1-heptene] + CCCC[P+](CCCC)(CCCC)CCCC.O=S(=O)([N-]S(=O)(=O)C(F)(F)F)C(F)(F)F = 4.09
• O [water] + CCCC[P+](CCCC)(CCCC)CCCC.O=S(=O)([N-]S(=O)(=O)C(F)(F)F)C(F)(F)F = 3.26
• CCCc1ccccc1 [propylbenzene] + CCCC[P+](CCCC)(CCCC)CCCC.O=S(=O)([N-]S(=O)(=O)C(F)(F)F)C(F)(F)F = 2.03
• CCCC(=O)OC [methyl butanoate] + CCCC[P+](CCCC)(CCCC)CCCC.O=S(=O)([N-]S(=O)(=O)C(F)(F)F)C(F)(F)F = 1.08
• CC(C)CO [2-methyl-1-propanol] + CCCC[P+](CCCC)(CCCC)CCCC.O=S(=O)([N-]S(=O)(=O)C(F)(F)F)C(F)(F)F = 1.41
• CC(C)CC(C)(C)C [2,2,4-trimethylpentane] + CCCC[P+](CCCC)(CCCC)CCCC.O=S(=O)([N-]S(=O)(=O)C(F)(F)F)C(F)(F)F = 5.4
• C#CCCCCC [1-heptyne] + CCCC[P+](CCCC)(CCCC)CCCC.O=S(=O)([N-]S(=O)(=O)C(F)(F)F)C(F)(F)F = 2.48
• CCCCCCCCCC [decane] + CCCC[P+](CCCC)(CCCC)CCCC.O=S(=O)([N-]S(=O)(=O)C(F)(F)F)C(F)(F)F = 9.67
• C1CCOC1 [tetrahydrofuran] + CCCC[P+](CCCC)(CCCC)CCCC.O=S(=O)([N-]S(=O)(=O)C(F)(F)F)C(F)(F)F = 0.712
• CCCCCCCCC [nonane] + CCCC[P+](CCCC)(CCCC)CCCC.O=S(=O)([N-]S(=O)(=O)C(F)(F)F)C(F)(F)F = 7.87
• CCc1ccccc1 [ethylbenzene] + CCCC[P+](CCCC)(CCCC)CCCC.O=S(=O)([N-]S(=O)(=O)C(F)(F)F)C(F)(F)F = 1.63
• CC(C)c1ccccc1 [isopropylbenzene] + CCCC[P+](CCCC)(CCCC)CCCC.O=S(=O)([N-]S(=O)(=O)C(F)(F)F)C(F)(F)F = 2.07
• Cc1ccccc1 [toluene] + CCCC[P+](CCCC)(CCCC)CCCC.O=S(=O)([N-]S(=O)(=O)C(F)(F)F)C(F)(F)F = 1.24
• C1CCCCCCC1 [cyclooctane] + CCCC[P+](CCCC)(CCCC)CCCC.O=S(=O)([N-]S(=O)(=O)C(F)(F)F)C(F)(F)F = 3.97
• Cc1ccccc1C [1,2-dimethylbenzene] + CCCC[P+](CCCC)(CCCC)CCCC.O=S(=O)([N-]S(=O)(=O)C(F)(F)F)C(F)(F)F = 1.52
• c1ccccc1 [benzene] + CCCC[P+](CCCC)(CCCC)CCCC.O=S(=O)([N-]S(=O)(=O)C(F)(F)F)C(F)(F)F = 0.933
• CCOC(C)(C)C [2-ethoxy-2-methylpropane] + CCCC[P+](CCCC)(CCCC)CCCC.O=S(=O)([N-]S(=O)(=O)C(F)(F)F)C(F)(F)F = 2.91

----------
Test: activity coefficient (dimensionless); of the first substance listed, at infinite dilution; xn = mol fraction of the nth substance listed
Settings: 378.15 K; 101.33 kPa; Liquid; Chromatography; x1 = 0
The entries below come with measured activity coefficient values attached.
measurement.label: activity coefficient

- C#CCCCCC [1-heptyne] + CCCC[P+](CCCC)(CCCC)CCCC.O=S(=O)([N-]S(=O)(=O)C(F)(F)F)C(F)(F)F: 2.42
- C#CCCCCCC [1-octyne] + CCCC[P+](CCCC)(CCCC)CCCC.O=S(=O)([N-]S(=O)(=O)C(F)(F)F)C(F)(F)F: 2.93
- CCCCCCCC [octane] + CCCC[P+](CCCC)(CCCC)CCCC.O=S(=O)([N-]S(=O)(=O)C(F)(F)F)C(F)(F)F: 6.56
- CCc1ccccc1 [ethylbenzene] + CCCC[P+](CCCC)(CCCC)CCCC.O=S(=O)([N-]S(=O)(=O)C(F)(F)F)C(F)(F)F: 1.58
- CCC(=O)OC [methyl propanoate] + CCCC[P+](CCCC)(CCCC)CCCC.O=S(=O)([N-]S(=O)(=O)C(F)(F)F)C(F)(F)F: 0.894
- CC(C)(C)O [2-methylpropan-2-ol] + CCCC[P+](CCCC)(CCCC)CCCC.O=S(=O)([N-]S(=O)(=O)C(F)(F)F)C(F)(F)F: 1.38

----------
Assay: activity coefficient (dimensionless); of the first substance listed, at infinite dilution; xn = mol fraction of the nth substance listed
Details: 378.15 K; 101.33 kPa; Liquid; Chromatography; x1 = 0
Entry flag: label 1 if activity coefficient reaches 3; label 0 if it does not.

* CCCCCCCCCC [decane] + CCCC[P+](CCCC)(CCCC)CCCC.O=S(=O)([N-]S(=O)(=O)C(F)(F)F)C(F)(F)F | label 1
* C1CCCCC1 [cyclohexane] + CCCC[P+](CCCC)(CCCC)CCCC.O=S(=O)([N-]S(=O)(=O)C(F)(F)F)C(F)(F)F | label 0
* C=Cc1ccccc1 [styrene] + CCCC[P+](CCCC)(CCCC)CCCC.O=S(=O)([N-]S(=O)(=O)C(F)(F)F)C(F)(F)F | label 0
* C=CCCCCCCCC [1-decene] + CCCC[P+](CCCC)(CCCC)CCCC.O=S(=O)([N-]S(=O)(=O)C(F)(F)F)C(F)(F)F | label 1
* Cc1cccc(C)c1 [1,3-dimethylbenzene] + CCCC[P+](CCCC)(CCCC)CCCC.O=S(=O)([N-]S(=O)(=O)C(F)(F)F)C(F)(F)F | label 0
* Cc1ccccc1C [1,2-dimethylbenzene] + CCCC[P+](CCCC)(CCCC)CCCC.O=S(=O)([N-]S(=O)(=O)C(F)(F)F)C(F)(F)F | label 0
* c1ccsc1 [thiophene] + CCCC[P+](CCCC)(CCCC)CCCC.O=S(=O)([N-]S(=O)(=O)C(F)(F)F)C(F)(F)F | label 0

----------
Experiment: activity coefficient (dimensionless); of the first substance listed, at infinite dilution; xn = mol fraction of the nth substance listed
Settings: 398.15 K; 101.33 kPa; Liquid; Chromatography; x1 = 0
measurement.label: activity coefficient

• C=CCCCCC [1-heptene] + CCCC[P+](CCCC)(CCCC)CCCC.O=S(=O)([N-]S(=O)(=O)C(F)(F)F)C(F)(F)F = 4.13
• CCC(C)(C)OC [2-methoxy-2-methylbutane] + CCCC[P+](CCCC)(CCCC)CCCC.O=S(=O)([N-]S(=O)(=O)C(F)(F)F)C(F)(F)F = 2.26
• CC(C)c1ccccc1 [isopropylbenzene] + CCCC[P+](CCCC)(CCCC)CCCC.O=S(=O)([N-]S(=O)(=O)C(F)(F)F)C(F)(F)F = 2.12
• C#CCCCC [1-hexyne] + CCCC[P+](CCCC)(CCCC)CCCC.O=S(=O)([N-]S(=O)(=O)C(F)(F)F)C(F)(F)F = 2.11
• CCCC(=O)OC [methyl butanoate] + CCCC[P+](CCCC)(CCCC)CCCC.O=S(=O)([N-]S(=O)(=O)C(F)(F)F)C(F)(F)F = 1.12
• Cc1cccc(C)c1 [1,3-dimethylbenzene] + CCCC[P+](CCCC)(CCCC)CCCC.O=S(=O)([N-]S(=O)(=O)C(F)(F)F)C(F)(F)F = 1.72
• CO [methanol] + CCCC[P+](CCCC)(CCCC)CCCC.O=S(=O)([N-]S(=O)(=O)C(F)(F)F)C(F)(F)F = 1.1
• C1CCCCC1 [cyclohexane] + CCCC[P+](CCCC)(CCCC)CCCC.O=S(=O)([N-]S(=O)(=O)C(F)(F)F)C(F)(F)F = 2.86
• CCCCCCCC [octane] + CCCC[P+](CCCC)(CCCC)CCCC.O=S(=O)([N-]S(=O)(=O)C(F)(F)F)C(F)(F)F = 6.44
• CCCO [propan-1-ol] + CCCC[P+](CCCC)(CCCC)CCCC.O=S(=O)([N-]S(=O)(=O)C(F)(F)F)C(F)(F)F = 1.32
• CCOCC [diethyl ether] + CCCC[P+](CCCC)(CCCC)CCCC.O=S(=O)([N-]S(=O)(=O)C(F)(F)F)C(F)(F)F = 1.86
• C=CCCCC [hex-1-ene] + CCCC[P+](CCCC)(CCCC)CCCC.O=S(=O)([N-]S(=O)(=O)C(F)(F)F)C(F)(F)F = 3.32
• Cc1ccccc1C [1,2-dimethylbenzene] + CCCC[P+](CCCC)(CCCC)CCCC.O=S(=O)([N-]S(=O)(=O)C(F)(F)F)C(F)(F)F = 1.57
• C1CCCCCC1 [cycloheptane] + CCCC[P+](CCCC)(CCCC)CCCC.O=S(=O)([N-]S(=O)(=O)C(F)(F)F)C(F)(F)F = 3.38
